assay: soluble on expression in E. coli; label from the status in PepcDB or PDB records
measurement_label: soluble on expression in E. coli

// solved cases for soluble on expression in E. coli follow
**Q:** Please give measured soluble on expression in E. coli of the following entry: MIRYMIKESRMELIEENMKHLQDRLKTAKENEMSAKTVRHDFRHHNQNIATMIQKGETNEALHYIEQYNESLDAARTKEFCSHVTVNAILSSFYIKAQNDGICISIEADTQEGTNISDMDFVAILSNILENAVNGCKECGAHGKINVNIRTVSDKTVIVCSNSCKPGLVIENNMIKHRGIGIESMLTAARKYDGDISYRLENDVLTLCVILKK
**A:** not soluble

**Q:** Quote soluble on expression in E. coli reported for MSKTTLVERCYKYIMSNEKNWSPYTVINRKSWVKNYIEPFFKDTKLIDINPVLIQTFINTTFNNCTFSSSKIRYRFISSVLKEAYRLREINENPCDFVKLPLEHHHHHH please.
**A:** soluble

**Q:** Read off the recorded soluble on expression in E. coli for MADEERLKEFKEANKIVFDPNTRQVWENQNRDGTKPATTFQSEEDIKRAAPESEKDTSATSGIVPTLQNIVATVTLGCRLDLKTVALHARNAEYNPKRFAAVIMRIREPKTTALIFASGKMVVTGAKSEDDSKLASRKYARIIQKIGFAAKFTDFKIQNIVGSCDVKFPIRLEGLAFSHGTFSSYEPELFPGLIYRMVKPKIVLLIFVSGKIVLTGAKQREEIYQAFEAIYPVLSEFRKM
**A:** soluble

**Q:** Give the reported soluble on expression in E. coli for this sequence. MSLKSVVNDTDGIVRVAKSVIPEIKHQDEVRVKIASSGLCGSDLPRIFKNGAHYYPITLGHEFSGYIDAVGSGVDDLHPGDAVACVPLLPCFTCPECLKGFYSQCAKYDFIGSRRDGGFAEYIVVKRKNVFALPTDMPIEDGAFIEPITVGLHAFHLAQGCENKNVIIIGAGTIGLLAIQCAVALGAKSVTAIDISSEKLALAKSFGAMQTFNSSEMSAPQMQSVLRELRFNQLILETAGVPQTVELAVEIAGPHAQLALVGTLHQDLHLTSATFGKILRKELTVIGSWMNYSSPWPGQEWETASRLLTERKLSLEPLIAHRGSFESFTQAVRDIARNAMQGKVLLIPEGHHHHHH
**A:** soluble

**Q:** Kindly indicate its recorded soluble on expression in E. coli. Item: MSLTALMVGTGRGAKMGILIKNGEVLEAVNDVQTVVFDKTGTLTVGKPQVTDIIGDSKQVLRIAASLEDSSEHPLAAAILAKAKADNISTLPVENFTAIEGKGVAATISGQQGVVGNQKLLGDLTFNKQLQQQETRLQNEAKTVVFVGLDDRIIGLIAIQDAPKPTSKEAIAALRARGLRTVMLTGDNQRVAQAVAQQIGIDEVIADVLPGDKAAQIKQFQHDEGHHHHHH
**A:** soluble

Parameter requested: soluble on expression in E. coli. Apply to each item below.
1. MSLKTPIFAQQTDPALTSAVLGQTAALKKVHKDRKKTQEKIIAAEVAVTASLERIHHVEDKMLDYLSNAQGAMQNLYQIKRAGELVAKEIPQNCSLLLKSVGGNLKGTVIAAMVSDELTDAATQMTALFPFMKQLVTSGKYDVTGDDGKNEKHKVNLLNASERYYIANEVVSRLEAINTNLFILAWQVRTLSWNDLWFSLDPEGWANVMSGKNIIGGIISDWNQGYSLKEGHHHHHH
2. MGKSYKEIIELLDCNQTTIWRNVKKYEEFGLDSLLQETRGGRNHAYMTVEEEKAFLARHLKATEAGEFVTIDALFQVYKKECG
3. MSLTISLGYRALDVGRARAHALIDQLSARESVELLCEAFEVPRSCYYNHRLRRRNPDVERVRLRSRVNELFTQSRSAAGSRSIVLMMHEDGEQIGRFKVRSLMRELGLISKQPGSHAYRKATVERPDIPNILNRAFDVPAPNQVWCGDITYIWAQGKWHYLAVVMDLFARRVVGWALSSKPDTDLVIKALDMAYEQRGKPQGLLFHSDQGAQYGSRQFRQRLWRYRIRQSMSRRGNCWDNAPMERVFRSLKTEWIPTVGYMTAQEAQRDISHYLMHRYNWIRPHQFNNGLAPAQSEKRLNVVSGISEGHHHHHH
4. MAENKQASEGLAEDLIRSMVQTASIELHLKTLVEKRQSEMDNGLIDTNDFNRVNEQIDVLKNLKEELFEVTEQRRQDMRTLFDLFEGKGDKEQWCIVKHAAMAMYTAFEAWQASDNDRLLYQICIEKNAYFIKKITQFTGVPITECASCFSDMMKGAIDDEG
5. SLKKWLVTIAALWLAGCSSGEINKNYYQLPVVQSGTQSTASQGNRLLWVEQVAVPDYLAGNGVVYQTSDVKYVIANNTLWASPLDQQLRNTLVANLSTQLPGWVVASQPLGSAQDTLNVTVTEFNGRYDGKVIVSGEWLLNHQGQLIKRPFRLEGMQTQDGYDEMVKVLASVWSQEAASIAQEIKRLP

**A:**
1. soluble
2. not soluble
3. not soluble
4. not soluble
5. soluble

====

assay: soluble on expression in E. coli; label from the status in PepcDB or PDB records
measurement_label: soluble on expression in E. coli

For orientation, consider the following solved cases.
**Q:** Tell us which soluble on expression in E. coli value is on record for MSKSSNSDSQKSLPSPGHPSTGRPDLDLITDPLEEQRLEPQRDSHRSDTRGHPSTGRKSHNSTSAQSSVYNSRTDPENAAMDSDEELRKMMEGFVDDEESDPTYEPP
**A:** soluble

**Q:** Annotate the sequence MVKDEVIKQISTPLTSPAFPRGPYKFHNREYFNIVYRTDMDALRKVVPEPLEIDEPLVRFEIMAMHDTSGLGCYTESGQAIPVSFNGVKGDYLHMMYLDNEPAIAVGRELSAYPKKLGYPKLFVDSDTLVGTLDYGKLRVATATMGYKHKALDANEAKDQICRPNYMLKIIPNYDGSPRICELINAKITDVTVHEAWTGPTRLQLFDHAMAPLNDLPVKEIVSSSHILADIILPRAEVIYDYLK with its measured soluble on expression in E. coli.
**A:** soluble

**Q:** Query soluble on expression in E. coli for ELVMTQTPLSLPVSLGDQASISCRSSQSLVHSNGNTYLHWYLQKPGQSPKFLIYKVSNRFSGVPDRFSGSGSGTDFILKISRVEAEDLGVYFCFQSTHFFPTFGGGTKLEIKRTVAAPSVFIFPPSDEQLKSGTASVVCLLNNFYPREAKVQWKVDNALQSGNSQESVTEQDSKDSTYSLSSTLTLSKADYEKHKVYACEVTHQGLSSPVTKSFNRGEC
**A:** soluble

**Q:** Dear colleague, please send me the reported soluble on expression in E. coli for MGSDKIHHHHHHMLKNDRWITEQAAAGMLEPFQAGLIRHLDPEQHQRPVLSFGCSSFGYDLRLSAKEFLIFRHVPGTVMNPKRFNPANLESTPLHQDEDGEYFILPAHSYGLGVALEKMKVPSNITVICLGKSTYARLGIIVNTTPAEASWEGHLTLEFSNSSGADCRIYANEGICQLLFFEGDPCDTTYSDRQGKYQHQPERVTLARI when you can.
**A:** not soluble

**Q:** Dear colleague, please send me the reported soluble on expression in E. coli for MGHHHHHHSHMTWKGGGGWMAAVTHGPGITWGSLLPSAVRQGEQKCKNTDVYFSKLGGGGVPPDSFQRADCGGPTVYPTPARESLSFGTPGFPELRGKLILHVSIAVVVFLFGPGRAGEGPSRLQEASRVSWTLLCRPQAALQTPVRWDDFRRSQPGTARPSAWEPVQGAVS when you can.
**A:** soluble

Now for a further sequence.
**Q:** Please report the measured soluble on expression in E. coli for MPKAEGRIFDFKGHDAIRTDFLEAIDFDGKDEYIKIETDEFSAVCPFSGLPDIGRVIIEYYPDGGKIVELKSLKYYFVSFRNVGIYQEEATKRIYEDLKNLLKTDRIRVTVIYNIRGGIKTTTQMGSLEGKKSGEVE
**A:** not soluble

====

assay: soluble on expression in E. coli; label from the status in PepcDB or PDB records
measurement_label: soluble on expression in E. coli

Reference set (5 entries):
**Q:** Quickly give me recorded soluble on expression in E. coli for MTDFQKQFFARLHIEEKDTVSFEDLSNIMYAMAQTVPFENLNILEKNFKEISKENLKEKILVNNRGGLCYELNPTMYYFLKDSGFDVHLVSGTVYNAANSIWAVDSGHIATVLTHHNELYLIEVGFGSYLPLAPVPFLGEVIHSATGDYRIRKEMTEKGNYILEMRKNNEFLDQSAADDWTLGYAFYIEEVDEEKANTAQKIIVEHEGSPFNKVPLIVKLTEDGHASLTKDSLTVAKNGKKTKETVTDMQYTNLLHSKFGITL
**A:** not soluble

**Q:** Give the reported soluble on expression in E. coli for this sequence. MSLAKPKVIVPMVTPLRGGSVDKNAASWLASRLSESGVDGVFVPGTTGEWYLLDPHERAEAFFAVASSAIAGLRLVAGVSGYRPEESYRLAEEAAGHGAHAVMAVPPIYFRPSTDFLREFYGEIKRRAGGLPTYIYIFPERMGYTLAVEQVESLVEAGVVDGIKATVTDAAYIAGLAAVKERNPEFEVLAGGLEMLVHTSLSGGDGVVDAYSNVAPKLAVELAESLEKGSVERVAGLQGRVLKLSRILGKRSLPAVLKAVLHVLGAPITGEVRKPLKPLTQPEANATANALCTSYRDYLLPGEGHHHHHH
**A:** soluble

**Q:** State, in one line, measured soluble on expression in E. coli of MIKAILIFNNHGKPRLCKFYQHYSEDTQQQIIRETFHLVSKRDENVCNFLEGGLLIGGSDNKLIYRHYATLYFVFCVDSSESELGILDLIQVFVETLDKCFENVCELDLIFHVDKVHNILAEMVMGGMVLETNMNEIVTQIDA
**A:** soluble

**Q:** Check the records and state soluble on expression in E. coli for MVGHVLYGWRDRPRRGEVDYPHTENIRMGHTWDSKRDVSKFDKSWSDQNIVDAIVATLENPDYALSGKVKRVVWKDIHGTTVRVSYNVCLMVGVISDRAYSDTPDRKAKRIVE
**A:** not soluble

**Q:** Give the reported soluble on expression in E. coli for this sequence. MTTLKVKQLANKKGLNILEDSIEINESGVDFQVAHVTEQNGDKWILRIPRRPESMRHALREKEALEIMKKHAAFQVPNWSIFSEELIAYKQLSGFPAATIDIEQQKYVWNFNEKNVPTEYYISLGKVLANVHSLSQQKFNNIGVEILTANELRTSMKQRMNRVKEQYHINQNLWDRWQAWLAEDSFWPSHVGVKHGDIHPGHILIDKKNNVTGLIDWTEVGIGDVSIDFTSHYLLFGKDGLTKLIHSYDNAGGKTWSRMDEHIIELLTTSSITVAEYAQVSGLKDMHEAAIHMLATEC
**A:** not soluble

---
**Q:** // fetch soluble on expression in E. coli given entry MTGGFTPDSGRYHLYISHACPWAHRTMIFRTLKGLEDHITISAVHPDMLGEGWTFEPDDNGATGDTLYNSAFARDIYTRADPRFTGRVTVPILWDKQRETIVSNESSEIIRMFNAAFNGLTGNSDDYWPEPLRDAIAPVNERIYDTFNNGVYKAGFATTQQAYDAAIVPLFDTLDWLEERLSHNRYLMGDQLTEADWRLFTTLVRFDPVYHLHFKCNRKRIVDYPNLWGYTRELYQTPGVADTVNFDHIVRHYHYSHETINPNRIIPINPVLDFHRPHGRGLEHHHHHH
**A:** not soluble
